Molecular target: Human immunodeficiency virus type 1 protease (Human immunodeficiency virus 1, UniProt Q72874)
Assay: Ability to inhibit purified recombinant HIV-1 protease.
measurement.label: Ki

Problem: Which Ki reading was recorded for the compound O=c1cc(-c2ccccc2)oc(O)c1C(CC1CC1)SC1CCCC1 (stereo unspecified) ?
Result: 0.069 nM

====

Target: UniProt:Q72874
Assay: Ability to inhibit purified recombinant HIV-1 protease.
Measured pIC50 of individual entries
// field semantics: pIC50 = negative decimal log of concentration (mol/L)

compound	measured.target	measurement.label	endpoint.value
O=c1cc(-c2ccccc2)oc(O)c1C(CC1CCCC1)SC1CCCCC1 (configuration not stated)	UniProt:Q72874	pIC50	6.27
O=c1cc(-c2ccccc2)oc(O)c1C(CC1CC1)SC1CCCCC1 (configuration not stated)	UniProt:Q72874	pIC50	6.83

Problem: Which pIC50 reading was recorded for the compound CC(C)CC(SCc1ccccc1)c1c(O)cc(-c2ccccc2)oc1=O (configuration not stated) ?
Result: 6.59

Problem: How about O=c1cc(-c2ccccc2)oc(O)c1C(Sc1ccc2ccccc2c1)c1ccccc1 (configuration not stated) ?
Result: 5.61

Problem: How about O=c1cc(-c2ccccc2)oc(O)c1C(SC1CCCC1)C1CCCC1 (configuration not stated) ?
Result: 6.65

Problem: How about O=c1cc(-c2ccccc2)oc(O)c1C(SC1CCCCC1)c1ccccc1 (configuration not stated) ?
Result: 6.32

Problem: How about CC(C)CCC(Sc1ccccc1)c1c(O)cc(-c2ccccc2)oc1=O (configuration not stated) ?
Result: 6.41

====

Target: UniProtKB Q72874
Test: Ability to inhibit purified recombinant HIV-1 protease.
Measured pIC50 of individual entries
// field semantics: pIC50 = negative decimal log of concentration (mol/L)

Previously resolved entries follow.
molecule	pIC50
O=c1cc(-c2ccccc2)oc(O)c1C(SCc1ccccc1)c1ccccc1 (stereo unspecified)	6.32
O=c1cc(-c2ccccc2)oc(O)c1C(Sc1ccccc1)c1ccccc1 (stereo unspecified)	6.11

Now examine the next entry.
Problem: Which pIC50 reading was recorded for the molecule CC(C)CC(Sc1ccccc1)c1c(O)cc(-c2ccccc2)oc1=O (stereo unspecified) ?
Result: 6.39

====

Measured CC50 of individual entries
Assay: In vitro toxic concentration against HIV-1 IIIb H9-infected cells
Assay type: cell-based
Settings: human, HIV-1 IIIb-infected H9 cells; read-out: TC50 (the source's name)

Previously resolved entries follow.
compound	CC50
O=c1cc(-c2ccccc2)oc(O)c1C(CC1CC1)SC1CCCCC1 (stereo unspecified)	67 µM
CC(C)CC(SC1CCCC1)c1c(O)cc(-c2ccccc2)oc1=O (stereo unspecified)	28 µM
O=c1cc(-c2ccccc2)oc(O)c1C(SCc1ccccc1)c1ccccc1 (stereo unspecified)	61 µM
O=c1cc(-c2ccccc2)oc(O)c1C(SC1CCCC1)C1CCCC1 (stereo unspecified)	70 µM
O=c1cc(-c2ccccc2)oc(O)c1C(CC1CC1)SCc1ccccc1 (stereo unspecified)	68 µM

Problem: Which CC50 reading was recorded for the compound CC(C)CC(SCc1ccccc1)c1c(O)cc(-c2ccccc2)oc1=O (stereo unspecified) ?
Result: 67 µM

====

Measured pIC50 of individual entries
Target sequence: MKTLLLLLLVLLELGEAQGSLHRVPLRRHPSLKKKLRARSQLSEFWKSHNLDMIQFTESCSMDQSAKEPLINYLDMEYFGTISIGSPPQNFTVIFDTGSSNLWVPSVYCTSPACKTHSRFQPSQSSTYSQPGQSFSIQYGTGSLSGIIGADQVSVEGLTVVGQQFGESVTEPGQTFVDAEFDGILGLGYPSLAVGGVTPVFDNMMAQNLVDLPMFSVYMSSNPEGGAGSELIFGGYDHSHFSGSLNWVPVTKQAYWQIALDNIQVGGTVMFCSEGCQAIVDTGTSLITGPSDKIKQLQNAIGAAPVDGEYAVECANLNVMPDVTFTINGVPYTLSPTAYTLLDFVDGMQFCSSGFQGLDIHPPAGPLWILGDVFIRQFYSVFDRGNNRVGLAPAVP
pIC50: −log10 of the molar value.

compound	pIC50
CC(C)CC(SC1CCCC1)c1c(O)cc(-c2ccccc2)oc1=O (configuration not stated)	< 4.40

Now examine the next entry.
Problem: Which pIC50 reading was recorded for the compound O=c1cc(-c2ccccc2)oc(O)c1C(CC1CC1)SCc1ccccc1 (configuration not stated) ?
Result: < 4.40
